IC50 for assorted molecules
Test system: KB
Experiment: Cytotoxicity against human KB cells
Assay type: functional, cell-based
I only need the number, in ng/mL, no unit after it.

Recorded results for 4 molecules are shown here.
C=C1C[C@](OC)([C@H](O)C(=O)N[C@H]2OCO[C@H]3[C@@H]2O[C@H](C[C@H](O)CCCCC/C=C/C=C/C(=O)N[C@@H](CCCNC(=N)N)C(=O)O)C(C)(C)[C@@H]3OC)O[C@H](C)[C@@H]1C [6,7-DIHYDRO-ONNAMIDE A]	5
C=C1C[C@](OC)([C@H](O)C(=O)N[C@H]2OCO[C@H]3[C@@H]2O[C@H](C[C@H](O)CCC/C=C/C=C/C=C/C(=O)N[C@@H](CCCNC(=N)N)C(=O)O)C(C)(C)[C@@H]3OC)O[C@H](C)[C@@H]1C [ONNAMIDE A]	3.6
C=C1C[C@](OC)([C@H](O)C(=O)N[C@H]2OCO[C@H]3[C@@H]2O[C@H](CC(=O)CCC/C=C/C=C/C=C/C(=O)N[C@@H](CCCNC(=N)N)C(=O)O)C(C)(C)[C@@H]3OC)O[C@H](C)[C@@H]1C [11-OXO-ONNAMIDE A]	13
C=C1C[C@](OC)([C@H](O)C(=O)N[C@H]2OCO[C@H]3[C@@H]2O[C@H](CC(=O)CCCCC/C=C/C=C/C(=O)N[C@@H](CCCNC(=N)N)C(=O)O)C(C)(C)[C@@H]3OC)O[C@H](C)[C@@H]1C [6,7-DIHYDRO-11-OXO-ONNAMIDE A]	23

Now take the following molecule into account.
Prompt: Requested field: IC50. Item: C=C1C[C@](OC)([C@H](O)C(=O)N[C@H]2OCO[C@H]3[C@@H]2O[C@H](C[C@H](O)CCC/C=C/C=C\C=C\C(=O)N[C@@H](CCCNC(=N)N)C(=O)O)C(C)(C)[C@@H]3OC)O[C@H](C)[C@@H]1C [4Z-ONNAMIDE A]
Completion: 2.9
